# testMethodNotes: Fasting single dose PK study in dogs: plasma ondansetron after intravenous bolus of marketed ondansetron injection (reference)
# Format: in vivo
# conditionContext: G1, IV bolus 4 mg/dog, fasted male Beagle dogs

compound | unitInfo | AUC(0-t)
Cc1nccn1CC1CCc2c(c3ccccc3n2C)C1=O (stereo not shown) | ng·h/mL | 106

* * *

# testMethodNotes: Fasting single dose PK study in dogs: plasma ondansetron after intravenous bolus of marketed ondansetron injection (reference)
# Assay type: in vivo
# conditionContext: G2, IV bolus 24 mg/dog, fasted male Beagle dogs, read-out: Vss

molecule | Vd [L]
Cc1nccn1CC1CCc2c(c3ccccc3n2C)C1=O (stereo not shown) | 36.3

* * *

# testMethodNotes: Fasting single dose PK study in dogs: plasma ondansetron after intravenous bolus of marketed ondansetron injection (reference)
# Format: in vivo
# conditionContext: G1, IV bolus 4 mg/dog, fasted male Beagle dogs

molecule | MRT last (h)
Cc1nccn1CC1CCc2c(c3ccccc3n2C)C1=O (stereo not shown) | 1.12

* * *

# testMethodNotes: Fasting single dose PK study in dogs: plasma ondansetron after intravenous bolus of marketed ondansetron injection (reference)
# Format: in vivo
# conditionContext: G1, IV bolus 4 mg/dog, fasted male Beagle dogs, read-out: Vss

compound | Vd (L)
Cc1nccn1CC1CCc2c(c3ccccc3n2C)C1=O (stereo not shown) | 40.3

* * *

# testMethodNotes: Fasting single dose PK study in dogs: plasma ondansetron after intravenous bolus of marketed ondansetron injection (reference)
# Assay type: in vivo
# conditionContext: G2, IV bolus 24 mg/dog, fasted male Beagle dogs

molecule | unitInfo | AUC(0-t)
Cc1nccn1CC1CCc2c(c3ccccc3n2C)C1=O (stereo not shown) | ng·h/mL | 715

The origin of these recorded values is patent US12508247B2.
